Ref: the supplement of paper PMC11451515

- Test system: P12-Ichikawa
- Protocol Text: cell viability relative to DMSO control; higher = less cytotoxic
- Measurement Parameters: HPLM + 10% dialyzed FBS; 48 h; 0.19 µM
Measured Endpoint: cell viability (%)
Respond numerically; units are % and should not be typed.

Below, 7 compounds whose answers are already recorded.
> print(dat)
                                        mol  value.reported
1      CC/C=C\C[C@H]1C(=O)CC[C@@H]1CC(=O)OC             126
2  CC1(C)SCCN([S+](=O)([O-])c2ccc(OCC#CCO)cc2)[C@H]1C(=O)NO             103
3  C[C@@H]1[C@H]\2[C@H](O)[C@H]3[C@H](N(C)C)\C(=C(C(N)=O)/C(=O)[C@@]3(O)\C(=C2C(=O)C4=C(O)C=CC=C14)O)O             126
4  COc1ccc(F)c(F)c1C(=O)c1cnc(NC2CCN([S+](C)(=O)[O-])CC2)nc1N             112
5  C=CC(=O)Nc1cccc(Sc2nc(Nc3ccc(N4CCN(C)CC4)cc3)ncc2Cl)c1             121
6            CCCCc1ccc2[nH]c(NC(=O)OC)nc2c1            22.9
7  CN1C(=O)c2sccc2N(C)c2nc(Nc3ccc([S+](N)(=O)[O-])cc3)ncc21            96.2

Alright, here's another compound for you.
Entry `CCn1nnc2c(N3CCOCC3)nc(-c3ccc(NC(=O)Nc4ccc(C(=O)N5CCN(C)CC5)cc4)cc3)nc21` — recorded cell viability = 76.3

###

- Tested on: NOMO1
- Protocol Text: cell viability relative to DMSO control; higher = less cytotoxic
- Measurement Parameters: RPMI 5 mM glucose + 10% FBS; 48 h; 0.569 µM
// values below are reported cell viability
Answer with a number only, understood to be in %.

See these solved cases before continuing.
Compound	Value Reported
Cc1c(N)nc([C@H](CC(N)=O)NC[C@@H](N)C(N)=O)nc1C(=O)N[C@H](C(=O)N[C@@H](C)[C@H](O)[C@@H](C)C(=O)N[C@@H](C(=O)NCCc1nc(-c2nc(C(=O)NCCC[S+](C)C)cs2)cs1)[C@@H](C)O)C(O[C@H]1O[C@H](CO)[C@H](O)[C@@H](O)[C@H]1O[C@H]1O[C@H](CO)[C@@H](O)[C@H](OC(N)=O)[C@@H]1O)c1c[nH]cn1 (stereo partly drawn)	114
N[S+](=O)([O-])c1ccc(Nc2nc(OCC3CCCCC3)c3[nH]cnc3n2)cc1	66.9

Now for a further compound.
What the record says about `CC(=O)SC[C@@H](C)C(=O)N1CCC[C@H]1C(=O)N[C@@H](Cc1ccccc1)C(=O)O` : cell viability is 94.4

###

Reported cell viability values follow for various molecules
- Test system: SEM cells
- Protocol Text: cell viability relative to DMSO control; higher = less cytotoxic
- Measurement Parameters: RPMI 5 mM glucose + 10% dialyzed FBS; 48 h; 5.12 µM
Answer in %, number only, no unit symbol.

> print(dat)
                                   molecule  value.reported
1  COc1c(Cl)cc2c([nH]c3cnccc32)c1NC(=O)c1cccnc1C             106
2  CC(C)c1onc(-c2c(Cl)cccc2Cl)c1COc1ccc(/C=C/c2cccc(C(=O)O)c2)c(Cl)c1             115

response.value for `C[C@@H]1CC[C@@]2(CC[C@]3(C)\C(=C/C[C@@H]4[C@@]5(C)CC[C@H](O)C(C)(C)[C@@H]5CC[C@@]34C)[C@@H]2[C@H]1C)C(O)=O` (field: cell viability) = 129

Note to self: cell viability recorded for `Cc1c(CN2CCN([S+](C)(=O)[O-])CC2)sc2c(N3CCOCC3)nc(-c3cnc(N)nc3)nc12` was 50.8

Lookup result for `Cc1cc(Nc2cc(N3CCN(C)CC3)nc(/C=C/c3ccccc3)n2)n[nH]1` ; measured cell viability: 4.41

// sample `COc1ccccc1[C@H](c1cccc2ccccc12)[C@@](C)(C#N)C(=O)N1CCC(c2cccc(C(F)(F)F)c2)CC1` , its cell viability was 93.9

The recorded cell viability for entry CCC(CCCC)COC(=O)C(\C#N)=C(\c1ccccc1)c2ccccc2 (stereo not drawn) equals 91.5

Measured cell viability, `Cc1nc(-c2ccc(OCC(C)C)c(C#N)c2)sc1C(=O)O` : 126

###

- System: P12-Ichikawa
- Protocol Text: cell viability relative to DMSO control; higher = less cytotoxic
- Measurement Parameters: HPLM + 10% dialyzed FBS; 48 h; 5.12 µM
cell viability strictly less than 90% = t. Otherwise f.

These recorded examples may help you get a feel for the data.
> print(dat)
                                   compound  class.assignment
1  Cc1cc(Nc2ncc3c(n2)N(C)C(=O)N(c2cc(NC(=O)c4cccc(C(F)(F)F)c4)ccc2C)C3)n(C)n1                 t
2  COc1cc(C(=O)NC2CCN(C)CC2)ccc1Nc1ncc2c(n1)N(C1CCCC1)CCC(=O)N2C(C)C                 t
3  CCOC(=O)N1CCN(/[N+]([O-])=N/Oc2cc(O/N=[N+](\[O-])N3CCN(C(=O)OCC)CC3)c([N+](=O)[O-])cc2[N+](=O)[O-])CC1                 f

hey, is cell viability for `CCCCCNC(=N)N/N=C/c1c[nH]c2ccc(OC)cc12` lower than 90% or not?
f

Below 90% on cell viability? Entry `CCCN[C@H]1CCc2nc(N)sc2C1`
f

Input CCC(CCCC)COC(=O)C(\C#N)=C(\c1ccccc1)c2ccccc2 (centres undefined) ; condition: cell viability strictly below 90%. Does it hold?
f

###

Measured cell viability accompanies every entry in the list below.
- System: NOMO1
- Protocol Text: cell viability relative to DMSO control; higher = less cytotoxic
- Measurement Parameters: HPLM + 10% dialyzed FBS; 48 h; 0.569 µM
# output: bare number, implied unit %

Examples from the recorded data:
Compound	Result Units	cell viability
C/C1=C2/[N]3[Co+]456([OH])<-[N]7=C1[C@@H](CCC(N)=O)C(C)(C)/C7=C/C1=[N]->4C(=C(/C)C4=[N]->5[C@@](C)([C@H]3[C@H](CC(N)=O)[C@@]2(C)CCC(=O)NC[C@@H](C)OP(=O)([O-])O[C@H]2[C@@H](O)[C@@H](n3c[n]->6c5cc(C)c(C)cc53)O[C@@H]2CO)[C@@](C)(CC(N)=O)[C@@H]4CCC(N)=O)/[C@@](C)(CC(N)=O)[C@@H]1CCC(N)=O	%	100
CCCOc1ccc(C(=O)OCCN(CC)CC)cc1N	%	132
CC1(C)CC\C2=C(/O1)C3=C(C=CC=C3)C(=O)C2=O	%	103
COc1ccc(F)c(F)c1C(=O)c1cnc(NC2CCN([S+](C)(=O)[O-])CC2)nc1N	%	118
O=C(O)CCCCCC(=O)NN=C1CCCC1	%	126
c1ccc(CNc2nc(NCc3ccccc3)c3ccccc3n2)cc1	%	148
CC(C)C1CCC(C(=O)N[C@H](Cc2ccccc2)C(=O)O)CC1 (some centres undefined)	%	81.4
COc1ccc(CCC(=O)c2c(O)cc(O[C@@H]3O[C@H](CO)[C@@H](O)[C@H](O)[C@H]3O[C@@H]3O[C@@H](C)[C@H](O)[C@@H](O)[C@H]3O)cc2O)cc1O	%	117

Let us examine a further case.
Form field cell viability, entry `CCCCCCNC(=O)N1\C=C(F)/C(=O)NC1=O` : 122

###

Below, each of the compounds is paired with its reported cell viability value.
- Tested on: P12-Ichikawa
- Protocol Text: cell viability relative to DMSO control; higher = less cytotoxic
- Measurement Parameters: RPMI 5 mM glucose + 10% FBS; 48 h; 15.4 µM

Examples with answers:
> print(dat)
                                   compound  value.reported
1  CC(=O)SC[C@@H](C)C(=O)N1CCC[C@H]1C(=O)N[C@@H](Cc1ccccc1)C(=O)O           91.3%
2  CCc1ccc(OCc2ccccc2C(=O)Nc2ccc3nc(C)cc(N)c3c2)cc1           41.3%
3  CN1CCc2c(c3ccccc3n2Cc2ccc(C(=O)NO)cc2)C1           64.1%

So the reported cell viability for `Nc1n[nH]c2nnc(-c3c(-c4ccccc4)nn4ccccc34)cc12` , on P12-Ichikawa, turned out to be 17.7%

P12-Ichikawa assay, compound CC(C)C1CCC(C(=O)N[C@H](Cc2ccccc2)C(=O)O)CC1 (stereo not given in full) , recorded cell viability = 83.5%

###

- System: SEM cells
- Protocol Text: cell viability relative to DMSO control; higher = less cytotoxic
- Measurement Parameters: RPMI 5 mM glucose + 10% FBS; 48 h; 0.00234 µM
Measured Endpoint: cell viability (%)
Report as a plain number; the unit % is understood.

Compound	Value Reported
NC(=O)c1cnccn1	112
CC/C=C\C[C@H]1C(=O)CC[C@@H]1CC(=O)OC	109

// field: cell viability; key: NC1=NC(=O)N2CC12 (centres undefined) ; value = 82.3

Lab book: cell viability of CCC(C)CCCCC(=O)N[C@@H](CCN)C(=O)NC(C(=O)N[C@H](CCN)C(=O)N[C@@H]1CCNC(=O)C([C@@H](C)O)NC(=O)[C@@H](CCN)NC(=O)[C@@H](CCN)NC(=O)[C@@H](CC(C)C)NC(=O)[C@H](Cc2ccccc2)NC(=O)[C@H](CCN)NC1=O)[C@@H](C)O (some centres undefined) noted as 113
